Read-out: Cytochrome P450 (CYP24A1), CYP24A1 (gene 1591)
EXPERIMENT_SUMMARY: LTEA_HepaRG_CYP24A1: Life Technologies and Expression Analysis (LTEA) Assay for Cytochrome P450 (CYP24A1) using HepaRG (AID 2283478)
DETAILS: mRNA level, 48 h; actives raise or lower the signal
Active and inactive are the calls of the source. Rule for the calls: active = hit-call score of the fitted dose curve at least 0.9, where 1 is the maximum; inactive = score below 0.9.
RESULT_TYPE: outcome

>>> df
                         structure_notation  experimental_result
0                               Oc1ccccc1Cl             inactive
1      CC(C)(C)OOC(C)(C)CCC(C)(C)OOC(C)(C)C             inactive
2  CCNS(=O)(=O)C(F)(F)C(F)(F)C(F)(F)C(F)(F)C(F)(F)C(F)(F)C(F)(F)C(F)(F)F             inactive

====

TESTED_SYSTEM: Nuclear receptor subfamily 1 group I member 2 (Homo sapiens)
EXPERIMENT_SUMMARY: ATG_PXR_TRANS: Attagene TRANS-FACTORIAL HepG2 Assay for human Pregnane X Receptor (PXR) (AID 2283008)
Inconclusive results are not listed. Active and inactive are the calls of the source. Rule for the calls: active = hit-call score of the fitted dose curve at least 0.9, where 1 is the maximum; inconclusive = response in the unintended direction; inactive = score below 0.9.
Outcomes: active, inactive

>>> print(df.to_string())
                                    compound     label
 0            CC(C)N(Cc1ccccc1)C(=O)C(C)(C)C    active
 1                 Oc1ccc2ccc3cccc4ccc1c2c34    active
 2  ClC1=C(Cl)C2(Cl)C3C(Cl)C=CC3C1(Cl)C2(Cl)Cl (stereo not drawn)  inactive
 3       CN(C)c1ccc(C(=O)c2ccc(N(C)C)cc2)cc1  inactive
 4                                    OCCCBr  inactive
 5  CC(C)(O)c1cnn2c(-c3ccc(F)c(-c4c(F)cccc4C#N)c3)cnc2n1    active
 6      CCC(C)c1ccc(O)cc1 (stereo not drawn)  inactive
 7  CS(=O)(=O)NC(=O)c1cc(Oc2ccc(C(F)(F)F)cc2Cl)ccc1[N+](=O)[O-]    active
 8                            CCC12COCN1COC2  inactive
 9                  COC(=O)Nc1nc2ccccc2[nH]1  inactive
10                           Cc1ccc(N)c(N)c1  inactive
11  CO[C@@H]1[C@H](OC(=O)NC(=O)CCl)CC[C@]2(CO2)[C@H]1[C@@]1(C)O[C@@H]1CC=C(C)C  inactive
12                       C=CCc1ccc2c(c1)OCO2  inactive

====

Read-out: Urokinase-type plasminogen activator receptor (uPAR), PLAUR (gene 5329)
EXPERIMENT_SUMMARY: BSK_CASM3C_uPAR: BioMAP Diversity Plus: CASM3C Assay for Urokinase-type plasminogen activator receptor (uPAR) Biomarker Activity (AID 2283054);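 note: cell-surface uPAR protein level quantified by ELISA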
DETAILS: primary human coronary artery smooth muscle cells; actives raise or lower the signal
Active and inactive are the calls of the source. How the source made its calls: active means hit-call score of the fitted dose curve at least 0.9, where 1 is the maximum; inactive means score below 0.9.
RESULT_TYPE: AC50

                                    compound  experimental_result
 0                                 ClCCOCCCl             inactive
 1                                [O-][Cl+]O             inactive
 2                      c1ccc(NNc2ccccc2)cc1             inactive
 3                                 O=C1CCCO1             inactive
 4  CCC(C)c1ccc(O)cc1 (configuration not stated)             inactive
 5                        CCCSC(=O)N(CCC)CCC             inactive
 6  C[C@]12C=CC3=C4CCC(=O)C=C4CC[C@H]3[C@@H]1CC[C@@H]2O             inactive
 7                    Nc1ccc(N=Nc2ccccc2)cc1      3.9 µM (active)
 8               CNC(=O)Oc1cccc2c1OC(C)(C)C2             inactive
 9                             CN(C)c1ccccc1             inactive
10  CS(=O)(=O)NC(=O)c1cc(Oc2ccc(C(F)(F)F)cc2Cl)ccc1[N+](=O)[O-]             inactive
11  O=C(N[C@H](c1ccccc1)[C@@H]1CN2CCC1CC2)c1c(Cl)ccc(C(F)(F)F)c1Cl             inactive
12          COP(=S)(OC)SCN1C(=O)c2ccccc2C1=O             inactive
13  CC(C)(O)c1cnn2c(-c3ccc(F)c(-c4c(F)cccc4C#N)c3)cnc2n1             inactive
14          CC(C)COC(=O)c1ccccc1C(=O)OCC(C)C             inactive
15                  COC(=O)Nc1nc2ccccc2[nH]1     9.38 µM (active)
16                   CC(C)(C)OOC(=O)c1ccccc1             inactive
17                         CCCCCCCCn1sccc1=O     11.5 µM (active)
18  CCNS(=O)(=O)C(F)(F)C(F)(F)C(F)(F)C(F)(F)C(F)(F)C(F)(F)C(F)(F)C(F)(F)F             inactive
19                   CN(C)C(=O)Nc1ccc(Cl)cc1             inactive
20        Clc1ccc(C(c2ccc(Cl)cc2)C(Cl)Cl)cc1     36.7 µM (active)
21                       C=CCc1ccc2c(c1)OCO2             inactive
22         CCCCOC(=O)c1ccccc1C(=O)OCc1ccccc1             inactive
23  ClC1=C(Cl)C2(Cl)C3C(Cl)C=CC3C1(Cl)C2(Cl)Cl (configuration not stated)     31.8 µM (active)
24     O=[N+]([O-])c1ccc(Oc2ccc(Cl)cc2Cl)cc1             inactive
25  ClC1=C(Cl)[C@]2(Cl)[C@H]3[C@H]([C@@H]4C=C[C@H]3C4)[C@@]1(Cl)C2(Cl)Cl       32 µM (active)
26           O=C(Oc1ccc(Br)cc1)N1CCN2CCC1CC2             inactive
